Test system: Trichoderma virens ATCC 9645
ASSAY METHOD TEXT: growth yield (OD600) with compound + IPBC relative to untreated control; higher = less growth inhibition
RECORDED CONDITIONS: compound concentration: 100 uM; IPBC concentration: 200 ng/ml; 40 h
Where a name gives a salt, the structure may show the parent alone. Screen size: about 1,300 compounds; about 130 (10%) showed an effect of 50% or more. What follows is part of a selection rich in strong results, with near analogues and random picks from the rest.
Decision: growth yield >= 80% yields 1 (yes), all other cases yield 0 (no).

- COMPOUND: "CN(C)CCCN1c2ccccc2Sc2ccc(C(F)(F)F)cc21 [Triflupromazine hydrochloride] + CCCCNC(=O)OCC#CI [3-iodo-2-propynyl butylcarbamate (IPBC)]"
  CATEGORY LABEL: "0 (no)"
- COMPOUND: "CC(=O)c1ccc2c(c1)N(CCCN(C)C)c1ccccc1S2 [Acetopromazine maleate salt] + CCCCNC(=O)OCC#CI [3-iodo-2-propynyl butylcarbamate (IPBC)]"
  CATEGORY LABEL: "0 (no)"
- COMPOUND: "OC(CCCN1CCCCC1)(c1ccccc1)c1ccccc1 [Diphenidol hydrochloride] + CCCCNC(=O)OCC#CI [3-iodo-2-propynyl butylcarbamate (IPBC)]"
  CATEGORY LABEL: "1 (yes)"
- COMPOUND: "C[C@@H](CN1CC(=O)NC(=O)C1)N1CC(=O)NC(=O)C1 [Dexrazoxane hydrochloride] + CCCCNC(=O)OCC#CI [3-iodo-2-propynyl butylcarbamate (IPBC)]"
  CATEGORY LABEL: "1 (yes)"
- COMPOUND: "O=C(O)Cc1ccc(-c2ccccc2)cc1 [Felbinac] + CCCCNC(=O)OCC#CI [3-iodo-2-propynyl butylcarbamate (IPBC)]"
  CATEGORY LABEL: "0 (no)"
- COMPOUND: "O=C(O)CCc1nc(-c2ccccc2)c(-c2ccccc2)o1 [Oxaprozin] + CCCCNC(=O)OCC#CI [3-iodo-2-propynyl butylcarbamate (IPBC)]"
  CATEGORY LABEL: "0 (no)"
- COMPOUND: "O=C(O)Cc1sc(-c2ccccc2)nc1-c1ccc(Cl)cc1 [Fentiazac] + CCCCNC(=O)OCC#CI [3-iodo-2-propynyl butylcarbamate (IPBC)]"
  CATEGORY LABEL: "0 (no)"

###

Test system: Trichoderma virens ATCC 9645
ASSAY METHOD TEXT: growth yield (OD600) with compound + IPBC relative to untreated control; higher = less growth inhibition
RECORDED CONDITIONS: compound concentration: 100 uM; IPBC concentration: 200 ng/ml; 72 h
Where a name gives a salt, the structure may show the parent alone. Hit rate of the full screen: of about 1,300 compounds, about 130 (10%) showed an effect of 50% or more. This is one part of a sample in which strong results are shown more often than they occur.
Recorded growth yield for the following compounds

- COMPOUND: "C=CCSCC1Nc2cc(Cl)c(S(N)(=O)=O)cc2S(=O)(=O)N1 (stereo not given) [Althiazide] + CCCCNC(=O)OCC#CI [3-iodo-2-propynyl butylcarbamate (IPBC)]"
  UNIT TEXT: "%"
  growth yield: 96.7
- COMPOUND: "COc1ccc(CN2CCNCC2)c(OC)c1OC [Trimetazidine dihydrochloride] + CCCCNC(=O)OCC#CI [3-iodo-2-propynyl butylcarbamate (IPBC)]"
  UNIT TEXT: "%"
  growth yield: 91.9
- COMPOUND: "C[N+]1(C)CCCC(OC(=O)C(O)(c2ccccc2)c2ccccc2)C1 (stereo not given) [Mepenzolate bromide] + CCCCNC(=O)OCC#CI [3-iodo-2-propynyl butylcarbamate (IPBC)]"
  UNIT TEXT: "%"
  growth yield: 85.7
- COMPOUND: "C#C[C@]1(O)CC[C@H]2[C@@H]3CCC4=CC(=O)CC[C@@H]4[C@H]3CC[C@@]21C [Norethindrone] + CCCCNC(=O)OCC#CI [3-iodo-2-propynyl butylcarbamate (IPBC)]"
  UNIT TEXT: "%"
  growth yield: 83.1
- COMPOUND: "Nc1nc(=O)n([C@@H]2CS[C@H](CO)O2)cc1F [(-)-Emtricitabine] + CCCCNC(=O)OCC#CI [3-iodo-2-propynyl butylcarbamate (IPBC)]"
  UNIT TEXT: "%"
  growth yield: 87.5
- COMPOUND: "CO[C@@H]1[C@@H](OC(N)=O)[C@@H](O)[C@H](Oc2ccc3c(O)c(NC(=O)c4ccc(O)c(CC=C(C)C)c4)c(=O)oc3c2C)OC1(C)C [Novobiocin sodium salt] + CCCCNC(=O)OCC#CI [3-iodo-2-propynyl butylcarbamate (IPBC)]"
  UNIT TEXT: "%"
  growth yield: 115
- COMPOUND: "CC(C)[N+](C)(CCOC(=O)C1c2ccccc2Oc2ccccc21)C(C)C [Propantheline bromide] + CCCCNC(=O)OCC#CI [3-iodo-2-propynyl butylcarbamate (IPBC)]"
  UNIT TEXT: "%"
  growth yield: 89.1
- COMPOUND: "Cc1c(O)c(=O)n(-c2ccccc2)n1C [Antipyrine, 4-hydroxy] + CCCCNC(=O)OCC#CI [3-iodo-2-propynyl butylcarbamate (IPBC)]"
  UNIT TEXT: "%"
  growth yield: 92.2
- COMPOUND: "Nc1nc2ccc(OC(F)(F)F)cc2s1 [Riluzole hydrochloride] + CCCCNC(=O)OCC#CI [3-iodo-2-propynyl butylcarbamate (IPBC)]"
  UNIT TEXT: "%"
  growth yield: 49.3
- COMPOUND: "CN(C)[C@@H]1C(O)=C(C(N)=O)C(=O)[C@@]2(O)C(O)=C3C(=O)c4c(O)cccc4[C@@](C)(O)[C@H]3C[C@@H]12 [Tetracycline hydrochloride] + CCCCNC(=O)OCC#CI [3-iodo-2-propynyl butylcarbamate (IPBC)]"
  UNIT TEXT: "%"
  growth yield: 96.9
